Ref: ChEMBL document CHEMBL1137846

As a worked illustration, we turn to IC50 data collected for Estrogen receptor beta (Homo sapiens).
Express it in nM; write the number only.

Below: 4 compounds and their reported IC50.
INSERT INTO assay_data (compound, tgt, metric, value_observed) VALUES
  ('Oc1ccc([C@H]2Sc3cc(O)ccc3O[C@H]2c2ccc(OCCN3CC4CCC4C3)cc2)cc1 (stereo not given in full)', 'Estrogen receptor beta (Homo sapiens)', 'IC50', 85),
  ('Oc1ccc([C@H]2Sc3cc(O)ccc3O[C@H]2c2ccc(OCCN3CC4CCC3CC4)cc2)cc1', 'Estrogen receptor beta (Homo sapiens)', 'IC50', 52),
  ('Oc1ccc([C@H]2Sc3cc(O)ccc3O[C@H]2c2ccc(OCCN3CC4CC5CC(C4)CC3C5)cc2)cc1', 'Estrogen receptor beta (Homo sapiens)', 'IC50', 40),
  ('Oc1ccc([C@H]2Sc3cc(O)ccc3O[C@H]2c2ccc(OCCN3C4CCCC3CC4)cc2)cc1', 'Estrogen receptor beta (Homo sapiens)', 'IC50', 51);

For Oc1ccc([C@H]2Sc3cc(O)ccc3O[C@H]2c2ccc(OCCN3CC4CC3CO4)cc2)cc1 (stereo not given in full) on Estrogen receptor beta (Homo sapiens), measured IC50 was 73

* * *

As a worked illustration, we turn to pIC50 data collected for Estrogen receptor beta (Homo sapiens, UniProt Q92731).
The meaning of pIC50 here: minus log10 of the concentration in molar units.

Below: 3 compounds and their reported pIC50.
INSERT INTO assay_data (compound, value_observed) VALUES
  ('Oc1ccc([C@H]2Sc3cc(O)ccc3O[C@H]2c2ccc(OCCN3CC4(CCC4)C3)cc2)cc1', 7.59),
  ('Oc1ccc([C@H]2Sc3cc(O)ccc3O[C@H]2c2ccc(OCCN3CCC4(CCCC4)CC3)cc2)cc1', 7.41),
  ('Oc1ccc([C@H]2Sc3cc(O)ccc3O[C@H]2c2ccc(OCCN3CC[C@@H]4CC43)cc2)cc1 (single isomer, unassigned)', 7.25);

For "Oc1ccc([C@H]2Sc3cc(O)ccc3O[C@H]2c2ccc(OCCN3C4CCCC3CCC4)cc2)cc1" on Estrogen receptor beta (Homo sapiens, UniProt Q92731), measured pIC50 was 7.33

* * *

As a worked illustration, we turn to pIC50 data collected for Estrogen receptor (Homo sapiens, UniProt P03372).
The meaning of pIC50 here: minus log10 of the concentration in molar units.

Below: 3 molecules and their reported pIC50.
INSERT INTO measurements (molecule, value_observed) VALUES
  ('Oc1ccc([C@H]2Sc3cc(O)ccc3O[C@H]2c2ccc(OCCN3C4CCCC3CCC4)cc2)cc1', 9.22),
  ('Oc1ccc([C@H]2Sc3cc(O)ccc3O[C@H]2c2ccc(OCCN3C4CCCC3CC4)cc2)cc1', 9.22),
  ('Oc1ccc([C@H]2Sc3cc(O)ccc3O[C@H]2c2ccc(OCCN3C[C@H]4CCC[C@H]4C3)cc2)cc1', 9.52);

Recorded pIC50 (molecule Oc1ccc([C@H]2Sc3cc(O)ccc3O[C@H]2c2ccc(OCCN3CC4CCC4C3)cc2)cc1 (some centres undefined) ): 9.10

* * *

As a worked illustration, we turn to IC50 data collected for Estrogen receptor (Homo sapiens).
Express it in nM; write the number only.

INSERT INTO measurements (compound, metric, unit_symbol, value_observed) VALUES
  ('Oc1ccc([C@H]2Sc3cc(O)ccc3O[C@H]2c2ccc(OCCN3CCC4(CCCC4)CC3)cc2)cc1', 'IC50', 'nM', 1.2),
  ('Oc1ccc([C@H]2Sc3cc(O)ccc3O[C@H]2c2ccc(OCCN3CC4CC3CO4)cc2)cc1 (stereo partly specified)', 'IC50', 'nM', 0.7),
  ('Oc1ccc([C@H]2Sc3cc(O)ccc3O[C@H]2c2ccc(OCCN3CC4(CCC4)C3)cc2)cc1', 'IC50', 'nM', 0.4),
  ('Oc1ccc([C@H]2Sc3cc(O)ccc3O[C@H]2c2ccc(OCCN3CC4CCC3CC4)cc2)cc1', 'IC50', 'nM', 1.3),
  ('Oc1ccc([C@H]2Sc3cc(O)ccc3O[C@H]2c2ccc(OCCN3CC4CC5CC(C4)CC3C5)cc2)cc1', 'IC50', 'nM', 0.6);

// next entry
Recorded IC50 (compound "Oc1ccc([C@H]2Sc3cc(O)ccc3O[C@H]2c2ccc(OCCN3C[C@H]4CCCC[C@H]4C3)cc2)cc1" ): 1
